Test system: P. aeruginosa strain WC-453
procedure_details: Time-kill assay in HEPES or CAA with 25% human serum (Tables 7, 8)
Format: cell-based, Pseudomonas aeruginosa
condition_details: CAA + 25% human serum; lysin 10 μg/ml; 1 hr; WC-453
value_type: CAA/HuS (Log10 CFU/mL), 1 hr

INSERT INTO results (molecule, readout_value) VALUES
  ('GN122: lysin obtained from Pseudomonas putida strain PA14H7 (SEQ ID NO: 218) (protein, listed as Pseudomonas putida) MSIFSFVKEAGEKLIDLLTPGNANASEQLKEHVSKVGLGNPNIQTTVEGSKVTVTGEVASQEEKEKILLALGNIAGVESVDDQITVTGPLVAAARFVVVKKGDTLSAISLAVYGNANQYNKIFEANKPLLSHPDKIYPGQTLRIPE', 6.7),
  ('GN65: Lysin GN65, used as control (protein, (1)..(264) GN316 lysin) MAILKIGSKGLEVKNLQTSLNKIGFNLVADGIFGKATDNAVRAVQAGAGLVVDGIAGPKTMYAIRNAGESHQDHLTEADLIDAARELSVDLASIKAVNQVESRGTGFTKSGKIKTLFERHIMYKKLNAKFGQAKANALAQLYPTLVNAKAGGYTGGDAELERLHGAIAIDKDCAYESASYGLFQIMGFNCVICGYDNAEEMFNDFLTGERAQLMAFVKFIKADANLWKALKDKNWAEFARRYNGPAYAQNQYDTKLAAAYKSFS', 6.0),
  ('GN428: lysin obtained from Escherichia virus CBA120 (SEQ ID NO: 60) (protein, listed as Escherichia virus) MAILKLGNRGSEVKALQQSLNKIGFSLTADGIFGKATENAVKSVQAGAGLVIDGIAGPKTFYAIRNAGDAHQEHLTEADLVDAARELGVELASMKAVNQVESRGTGFTKTGKIKTLFERHIMYKKVTAKFGQARANALYQLYPTLVNPNSGGYIGGDAELERLQGAIALDEDCAYESASYGLFQIMGFNCQICGYSNAKEMFTDFLTGERAHLLAFVKFIKADANMWKALKNKNWAEFARRYNGPAYAKNQYDTKLAAAYKSFC', 5.5);
